B1: INTS4 (parent)
chain: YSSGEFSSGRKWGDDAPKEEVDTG

- Variants of: B1
- MEASUREMENT_NOTES: protein stability index of a GFP-peptide fusion (GPS, HEK-293T) (PSI 1-6); higher = more stable;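 further: lentivirally expressed fusions sorted by FACS into six bins by GFP to DsRed ratio, PSI derived from sequencing read proportions per bin multiplied by bin number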
- MEASUREMENT_PARAMETERS: c terminus: a fixed tail appended
Cut-off 2 on protein stability index, inclusive. At or above means T; below means F.

The examples below pair each entry with its known result.
Hi team, for V21R , is the recorded protein stability index at or above 2?
T

Hi team, for V21Q , is the recorded protein stability index at or above 2?
T

Hi team, for V21W , is the recorded protein stability index at or above 2?
F

Hi team, for D22K , is the recorded protein stability index at or above 2?
F

Hi team, for T23F , is the recorded protein stability index at or above 2?
T

New cases:
Hi team, for G4T , is the recorded protein stability index at or above 2?
T

Hi team, for E20Y , is the recorded protein stability index at or above 2?
T

Hi team, for D14C , is the recorded protein stability index at or above 2?
F

Hi team, for G24M , is the recorded protein stability index at or above 2?
T

Hi team, for E19V , is the recorded protein stability index at or above 2?
F

Hi team, for D15F , is the recorded protein stability index at or above 2?
T

Hi team, for G9Q , is the recorded protein stability index at or above 2?
T
